# TARGET ENTITY: Prostaglandin E2 receptor EP2 subtype (Homo sapiens, UniProt P43116)
# Sequence (P43116 whole entry): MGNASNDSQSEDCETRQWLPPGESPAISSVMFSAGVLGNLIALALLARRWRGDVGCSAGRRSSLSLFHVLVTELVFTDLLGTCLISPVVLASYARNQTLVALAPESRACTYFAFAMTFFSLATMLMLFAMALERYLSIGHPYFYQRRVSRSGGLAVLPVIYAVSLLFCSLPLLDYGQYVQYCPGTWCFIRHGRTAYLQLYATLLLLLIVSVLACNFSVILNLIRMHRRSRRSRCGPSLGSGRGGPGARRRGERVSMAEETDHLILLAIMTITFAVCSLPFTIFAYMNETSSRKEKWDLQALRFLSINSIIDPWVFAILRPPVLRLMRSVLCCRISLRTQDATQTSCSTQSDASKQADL
pKi: −log10 of the molar value.

[
  {
    "COMPOUND": "O=C(/C=C/c1ccccc1-c1cccc(/C=C/c2ccc3ccc(Cl)cc3n2)c1)NS(=O)(=O)c1cccs1",
    "TARGET ENTITY": "Prostaglandin E2 receptor EP2 subtype (Homo sapiens, UniProt P43116)",
    "RELATION QUALIFIER": "=",
    "pKi": 4.15
  },
  {
    "COMPOUND": "Cc1cccc(OCCCOc2ccc(-c3ccccc3CCC(=O)NS(=O)(=O)c3cccs3)cc2)c1",
    "TARGET ENTITY": "Prostaglandin E2 receptor EP2 subtype (Homo sapiens, UniProt P43116)",
    "RELATION QUALIFIER": "=",
    "pKi": 5.54
  },
  {
    "COMPOUND": "Cc1cccc(OCCCOc2ccc(-c3ccccc3CC(C)C(=O)NS(=O)(=O)c3cccs3)cc2)c1 (stereo not given)",
    "TARGET ENTITY": "Prostaglandin E2 receptor EP2 subtype (Homo sapiens, UniProt P43116)",
    "RELATION QUALIFIER": "=",
    "pKi": 5.54
  },
  {
    "COMPOUND": "CS(=O)(=O)c1cccc(-c2ccccc2CCC(=O)NS(=O)(=O)c2cccs2)c1",
    "TARGET ENTITY": "Prostaglandin E2 receptor EP2 subtype (Homo sapiens, UniProt P43116)",
    "RELATION QUALIFIER": "<",
    "pKi": 4.00
  },
  {
    "COMPOUND": "O=C(Cc1ccccc1-c1ccc(CSCCc2ccccc2)cc1)NS(=O)(=O)c1cccs1",
    "TARGET ENTITY": "Prostaglandin E2 receptor EP2 subtype (Homo sapiens, UniProt P43116)",
    "RELATION QUALIFIER": "=",
    "pKi": 6.23
  }
]

* * *

# TARGET ENTITY: Prostaglandin F2-alpha receptor (Homo sapiens)
# Sequence (P43088 whole entry): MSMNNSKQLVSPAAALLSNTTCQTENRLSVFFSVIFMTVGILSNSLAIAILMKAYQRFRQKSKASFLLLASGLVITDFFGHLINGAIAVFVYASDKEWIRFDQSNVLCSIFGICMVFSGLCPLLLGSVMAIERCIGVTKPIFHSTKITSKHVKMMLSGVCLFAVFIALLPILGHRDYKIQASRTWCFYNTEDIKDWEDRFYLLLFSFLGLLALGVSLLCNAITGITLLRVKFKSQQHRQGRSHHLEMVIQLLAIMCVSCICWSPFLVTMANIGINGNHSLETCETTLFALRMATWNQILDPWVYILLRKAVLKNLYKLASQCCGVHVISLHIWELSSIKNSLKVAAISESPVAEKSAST

[
  {
    "COMPOUND SMILES": "O=C(/C=C/c1ccccc1-c1ccc(Cl)c(Cl)c1)NS(=O)(=O)c1cccs1",
    "UNITS": "µM",
    "Ki": 17
  }
]

* * *

pKi: −log10 of the molar value.
pKi, Prostaglandin E2 receptor EP4 subtype (Homo sapiens, UniProt P35408): measured values
REPORTED ENDPOINT: pKi

[
  {
    "COMPOUND SMILES": "O=C(CCc1ccccc1-c1cccc(/C=C/c2ccc3ccc(Cl)cc3n2)c1)NS(=O)(=O)c1cccs1",
    "OBSERVED VALUE": 4.72
  },
  {
    "COMPOUND SMILES": "O=C(/C=C/c1ccccc1-c1ccc(Cl)c(Cl)c1)NS(=O)(=O)c1cccs1",
    "OBSERVED VALUE": 5.43
  },
  {
    "COMPOUND SMILES": "CCCCc1nn(-c2ccccc2C(F)(F)F)c(=O)n1Cc1ccc(-c2ccccc2S(=O)(=O)NC(=O)c2cccs2)cc1",
    "OBSERVED VALUE": 7.34
  },
  {
    "COMPOUND SMILES": "O=C(O)CCc1ccccc1-c1ccc(CSCCc2ccccc2)cc1",
    "OBSERVED VALUE": 5.36
  },
  {
    "COMPOUND SMILES": "O=C(/C=C/c1ccccc1-c1cccc(/C=C/c2ccc3ccc(Cl)cc3n2)c1)NS(=O)(=O)c1cccs1",
    "OBSERVED VALUE": 4.55
  },
  {
    "COMPOUND SMILES": "O=C(CCCc1ccccc1-c1ccc(CSCCc2ccccc2)cc1)NS(=O)(=O)c1cccs1",
    "OBSERVED VALUE": 6.15
  },
  {
    "COMPOUND SMILES": "O=C(CCc1ccccc1-c1ccccc1CSCCc1ccccc1)NS(=O)(=O)c1cccs1",
    "OBSERVED VALUE": 5.82
  },
  {
    "COMPOUND SMILES": "CSc1cccc(-c2ccccc2CCC(=O)NS(=O)(=O)c2cccs2)c1",
    "OBSERVED VALUE": 4.60
  },
  {
    "COMPOUND SMILES": "Cc1cccc(OCCCOc2ccc(-c3ccccc3CCC(=O)NS(=O)(=O)c3cccs3)cc2)c1",
    "OBSERVED VALUE": 5.80
  },
  {
    "COMPOUND SMILES": "Cc1cccc(OCCCOc2ccc(-c3ccccc3CC(C)(C)C(=O)NS(=O)(=O)c3cccs3)cc2)c1",
    "OBSERVED VALUE": 6.00
  }
]

* * *

# TARGET ENTITY: Prostaglandin D2 receptor (Homo sapiens)
# Sequence (Q13258 whole entry): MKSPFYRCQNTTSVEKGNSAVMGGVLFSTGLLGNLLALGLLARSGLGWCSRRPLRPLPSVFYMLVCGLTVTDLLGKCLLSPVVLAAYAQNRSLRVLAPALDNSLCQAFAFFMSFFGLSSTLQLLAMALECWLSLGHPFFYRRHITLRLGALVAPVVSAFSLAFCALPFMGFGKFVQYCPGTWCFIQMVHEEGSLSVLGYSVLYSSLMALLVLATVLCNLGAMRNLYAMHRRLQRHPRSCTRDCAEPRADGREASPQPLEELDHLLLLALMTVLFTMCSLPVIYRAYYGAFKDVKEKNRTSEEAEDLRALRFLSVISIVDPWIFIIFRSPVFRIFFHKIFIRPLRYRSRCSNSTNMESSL
# ASSAY: Inhibitory constant against Prostanoid DP receptor
REPORTED ENDPOINT: Ki (nM)

[
  {
    "COMPOUND SMILES": "O=C(/C=C/c1ccccc1-c1ccc(Cl)c(Cl)c1)NS(=O)(=O)c1cccs1",
    "OBSERVED VALUE": 830
  }
]

* * *

Protein target, amino acids: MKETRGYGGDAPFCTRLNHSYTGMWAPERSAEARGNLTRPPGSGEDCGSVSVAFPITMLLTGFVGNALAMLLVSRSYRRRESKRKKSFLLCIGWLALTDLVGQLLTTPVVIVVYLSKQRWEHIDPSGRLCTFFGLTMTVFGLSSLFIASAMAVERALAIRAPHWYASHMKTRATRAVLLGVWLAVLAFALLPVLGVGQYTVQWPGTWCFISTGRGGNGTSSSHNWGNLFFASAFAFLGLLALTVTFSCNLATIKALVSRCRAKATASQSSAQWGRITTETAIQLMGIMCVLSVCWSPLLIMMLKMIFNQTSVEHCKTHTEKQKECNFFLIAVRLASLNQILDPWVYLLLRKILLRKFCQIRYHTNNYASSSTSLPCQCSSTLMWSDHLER
pKi: −log10 of the molar value.
Let's look at some compounds and their measured pKi.
REPORTED ENDPOINT: pKi

[
  {
    "COMPOUND": "O=C(/C=C/c1ccccc1-c1cccc(/C=C/c2ccc3ccc(Cl)cc3n2)c1)NS(=O)(=O)c1cccs1",
    "REPORTED ENDPOINT": "pKi",
    "OBSERVED VALUE": 6.96
  },
  {
    "COMPOUND": "Cc1cccc(OCCCOc2ccc(-c3ccccc3CC(C)C(=O)NS(=O)(=O)c3cccs3)cc2)c1 (stereo not drawn)",
    "REPORTED ENDPOINT": "pKi",
    "OBSERVED VALUE": 6.47
  },
  {
    "COMPOUND": "O=C(CCc1ccccc1-c1ccccc1CSCCc1ccccc1)NS(=O)(=O)c1cccs1",
    "REPORTED ENDPOINT": "pKi",
    "OBSERVED VALUE": 6.29
  },
  {
    "COMPOUND": "O=C(CCc1ccccc1-c1cccc(/C=C/c2ccc3ccc(Cl)cc3n2)c1)NS(=O)(=O)c1cccs1",
    "REPORTED ENDPOINT": "pKi",
    "OBSERVED VALUE": 6.92
  },
  {
    "COMPOUND": "O=C(Cc1ccccc1-c1ccc(CSCCc2ccccc2)cc1)NS(=O)(=O)c1cccs1",
    "REPORTED ENDPOINT": "pKi",
    "OBSERVED VALUE": 6.48
  },
  {
    "COMPOUND": "O=C(NS(=O)(=O)CCc1ccccc1-c1ccc(CSCCc2ccccc2)cc1)c1cccs1",
    "REPORTED ENDPOINT": "pKi",
    "OBSERVED VALUE": 6.32
  },
  {
    "COMPOUND": "Cc1cccc(OCCCOc2ccc(-c3ccccc3CCC(=O)NS(=O)(=O)c3cccs3)cc2)c1",
    "REPORTED ENDPOINT": "pKi",
    "OBSERVED VALUE": 7.28
  },
  {
    "COMPOUND": "Cc1cccc(OCCCOc2ccc(-c3ccccc3COC(=O)NS(=O)(=O)c3cccs3)cc2)c1",
    "REPORTED ENDPOINT": "pKi",
    "OBSERVED VALUE": 6.92
  }
]

* * *

# TARGET ENTITY: Prostaglandin E2 receptor EP1 subtype (Homo sapiens, UniProt P34995)
# Sequence (P34995 whole entry): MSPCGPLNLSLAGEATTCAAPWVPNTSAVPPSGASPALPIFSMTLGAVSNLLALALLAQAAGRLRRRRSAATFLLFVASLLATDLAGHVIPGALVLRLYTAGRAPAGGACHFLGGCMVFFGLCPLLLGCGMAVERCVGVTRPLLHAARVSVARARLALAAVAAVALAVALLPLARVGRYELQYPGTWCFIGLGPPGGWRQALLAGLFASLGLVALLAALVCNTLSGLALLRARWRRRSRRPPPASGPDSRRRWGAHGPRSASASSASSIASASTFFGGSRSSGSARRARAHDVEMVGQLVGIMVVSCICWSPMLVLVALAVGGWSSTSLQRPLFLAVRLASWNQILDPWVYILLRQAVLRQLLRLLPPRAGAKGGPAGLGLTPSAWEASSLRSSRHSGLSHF
pKi: −log10 of the molar value.

[
  {
    "COMPOUND": "O=C(CCc1ccccc1-c1cccc(CSCCc2ccccc2)c1)NS(=O)(=O)c1cccs1",
    "pKi": 6.09
  },
  {
    "COMPOUND": "Cc1cccc(OCCCOc2ccc(-c3ccccc3CC(C)C(=O)NS(=O)(=O)c3cccs3)cc2)c1 (centres undefined)",
    "pKi": 5.24
  },
  {
    "COMPOUND": "O=S(=O)(CCc1ccccc1-c1ccc(CSCCc2ccccc2)cc1)NS(=O)(=O)c1cccs1",
    "pKi": 5.12
  },
  {
    "COMPOUND": "O=C(/C=C/c1ccccc1-c1ccc(Cl)c(Cl)c1)NS(=O)(=O)c1cccs1",
    "pKi": 5.09
  },
  {
    "COMPOUND": "O=C(Cc1ccccc1-c1ccc(CSCCc2ccccc2)cc1)NS(=O)(=O)c1cccs1",
    "pKi": 5.43
  },
  {
    "COMPOUND": "O=C(CCc1ccccc1-c1cccc(/C=C/c2ccc3ccc(Cl)cc3n2)c1)NS(=O)(=O)c1cccs1",
    "pKi": 4.31
  },
  {
    "COMPOUND": "O=C(/C=C/c1ccccc1-c1cccc(/C=C/c2ccc3ccc(Cl)cc3n2)c1)NS(=O)(=O)c1cccs1",
    "pKi": 4.39
  },
  {
    "COMPOUND": "CSc1cccc(-c2ccccc2CCC(=O)NS(=O)(=O)c2cccs2)c1",
    "pKi": 4.57
  },
  {
    "COMPOUND": "Cc1cccc(OCCCOc2ccc(-c3ccccc3CCC(=O)NS(=O)(=O)c3cccs3)cc2)c1",
    "pKi": 5.34
  }
]
